# PROCEDURE_TEXT: in vivo
# Design: species or system WISTAR rats
# ASSAY_CONDITIONS: male, Wistar, rat, sc, 25 ug, t1/2 (biphasic), first value
MEASURED_PARAMETER: half-life (h)
Hi! Could you send only the number? It should be in h, unit omitted.

Please look up its half-life: `CCOCc1nc2c(N)nc3ccccc3c2n1CC(C)(C)O`
1.5

====

# PROCEDURE_TEXT: Resiquimod concentration in plasma samples after intratumoral injection (Example 17)
# Assay type: in vivo, BALB/C mice
# ASSAY_CONDITIONS: female, BALB/C, mouse, other: intratumoral injection, 10 μg, 72 hours
MEASURED_PARAMETER: concentration at 72 h (ng/mL)
Hi! Could you send only the number? It should be in ng/mL, unit omitted.

Please look up its concentration at 72 h: `CCOCc1nc2c(N)nc3ccccc3c2n1CC(C)(C)O`
0.014

====

# PROCEDURE_TEXT: in vivo
# Set-up: species or system WISTAR rats
# ASSAY_CONDITIONS: male, Wistar, rat, sc, 25 ug, t1/2 (biphasic), second value
MEASURED_PARAMETER: half-life (h)
Hi! Could you send only the number? It should be in h, unit omitted.

Please look up its half-life: CCOCc1nc2c(N)nc3ccccc3c2n1CC(C)(C)O [Compound 4, Resiquimod]
10
